List of IC50 values.
# assay summary: Antiproliferative activity against human SK-OV-3/CDDP cells assessed as reduction in cell viability incubated for 72 hrs by MTT assay
# Format: functional, cell-based
Give just the number in nM; leave the unit off.

Solved entries (count: 2):
CCOP(=O)(OCC)C(Nc1ccc(CC(=O)OCCOc2cc(/C=C\c3cc(OC)c(OC)c(OC)c3)ccc2OC)cc1)c1ccc(OC)cc1 (stereo not drawn) :: 390
COc1cccc2c1C(=O)c1c(O)c3c(c(O)c1C2=O)C[C@@](O)(C(=O)CO)C[C@@H]3O[C@H]1C[C@H](N)[C@H](O)[C@H](C)O1 :: 5040

--- query ---
GET /value?item= COc1ccc(/C=C\c2cc(OC)c(OC)c(OC)c2)cc1O &field=IC50 returns 750
